system_name: T1, human TMEM106B (human, UniProt Q9NUM4 2-274)
T1 construct: full-length, transiently expressed on HEK293 cells, or natively expressed on HeLa, U251 and A549 cells (the cell is named under assay); also the source of the Pepscan peptides; also called huTMEM106B; huTMEM
measurement_description: FACS HEK+huTMEM 1.0 ug/ml;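 note: binding of purified mouse IgG antibodies to HEK293 cells transiently expressing human TMEM106B, read by flow cytometry as median fluorescence intensity of live, propidium iodide-negative cells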
Please respond with 1.0 when measured MFI is strictly beneath 40000 MFI, and with 0.0 in all other cases.

binder	classification
TM-13 (antibody, V domains shown) VH: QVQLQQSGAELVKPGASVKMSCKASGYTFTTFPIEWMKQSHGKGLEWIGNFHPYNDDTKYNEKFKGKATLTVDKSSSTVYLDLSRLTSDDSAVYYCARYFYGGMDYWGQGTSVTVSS VL: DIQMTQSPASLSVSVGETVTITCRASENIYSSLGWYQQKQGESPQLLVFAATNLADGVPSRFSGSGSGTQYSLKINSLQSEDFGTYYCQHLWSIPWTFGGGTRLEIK	0.0
TM-23 (antibody, V domains shown) VH: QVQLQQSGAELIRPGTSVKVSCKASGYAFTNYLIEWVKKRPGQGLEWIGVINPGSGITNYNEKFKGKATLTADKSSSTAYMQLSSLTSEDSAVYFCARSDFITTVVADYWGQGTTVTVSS VL: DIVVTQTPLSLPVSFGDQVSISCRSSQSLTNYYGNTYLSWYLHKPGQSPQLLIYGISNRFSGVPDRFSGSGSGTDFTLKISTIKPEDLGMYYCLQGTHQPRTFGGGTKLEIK	1.0
TM-6 (antibody, V domains shown, mouse IgG (hybridoma)) VH: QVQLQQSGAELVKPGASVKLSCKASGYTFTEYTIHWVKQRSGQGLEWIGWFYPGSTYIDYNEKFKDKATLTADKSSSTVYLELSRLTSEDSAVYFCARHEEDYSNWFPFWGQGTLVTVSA VL: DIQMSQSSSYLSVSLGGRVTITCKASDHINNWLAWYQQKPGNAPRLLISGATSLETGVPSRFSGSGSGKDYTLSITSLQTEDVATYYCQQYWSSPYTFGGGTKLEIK	1.0
TM-5 (antibody, V domains shown) VH: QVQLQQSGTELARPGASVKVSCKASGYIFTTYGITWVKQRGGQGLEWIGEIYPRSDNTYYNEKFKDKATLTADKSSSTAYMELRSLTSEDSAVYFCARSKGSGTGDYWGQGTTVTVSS VL: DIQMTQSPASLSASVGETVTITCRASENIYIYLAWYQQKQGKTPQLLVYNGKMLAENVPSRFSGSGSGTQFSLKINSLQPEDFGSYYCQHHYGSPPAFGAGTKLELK	0.0
TM-37 (antibody, V domains shown) VH: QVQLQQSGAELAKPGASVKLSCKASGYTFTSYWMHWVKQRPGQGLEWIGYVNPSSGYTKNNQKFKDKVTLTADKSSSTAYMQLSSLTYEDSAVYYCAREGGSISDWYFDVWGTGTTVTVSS VL: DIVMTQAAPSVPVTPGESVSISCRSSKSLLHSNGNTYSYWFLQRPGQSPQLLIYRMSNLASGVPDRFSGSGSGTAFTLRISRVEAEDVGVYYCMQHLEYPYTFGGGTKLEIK	0.0
TM-49 (antibody, V domains shown, mouse IgG (hybridoma)) VH: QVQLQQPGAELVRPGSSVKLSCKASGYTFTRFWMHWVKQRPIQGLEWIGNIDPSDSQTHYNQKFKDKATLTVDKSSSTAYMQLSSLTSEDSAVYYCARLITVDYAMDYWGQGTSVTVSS VL: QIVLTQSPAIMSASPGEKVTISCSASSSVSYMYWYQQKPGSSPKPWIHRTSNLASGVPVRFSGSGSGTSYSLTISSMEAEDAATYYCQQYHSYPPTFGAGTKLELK	1.0
TM-2 (antibody, V domains shown) VH: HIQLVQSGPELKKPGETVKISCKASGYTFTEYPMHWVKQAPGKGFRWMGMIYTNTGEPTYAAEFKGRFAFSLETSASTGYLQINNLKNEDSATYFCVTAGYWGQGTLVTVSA VL: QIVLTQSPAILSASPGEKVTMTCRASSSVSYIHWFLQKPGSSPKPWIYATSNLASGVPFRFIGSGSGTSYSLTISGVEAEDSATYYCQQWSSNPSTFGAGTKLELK	1.0
TM-10 (antibody, V domains shown) VH: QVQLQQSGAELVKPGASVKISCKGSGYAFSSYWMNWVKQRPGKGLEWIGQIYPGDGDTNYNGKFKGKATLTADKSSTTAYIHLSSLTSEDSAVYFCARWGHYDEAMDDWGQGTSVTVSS VL: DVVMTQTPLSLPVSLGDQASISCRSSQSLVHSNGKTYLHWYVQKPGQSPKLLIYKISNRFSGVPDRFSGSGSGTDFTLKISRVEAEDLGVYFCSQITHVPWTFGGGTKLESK	0.0
